# targetOrSystem: Full-length inactive AKT1 (Homo sapiens)
# Sequence (P31749 whole entry): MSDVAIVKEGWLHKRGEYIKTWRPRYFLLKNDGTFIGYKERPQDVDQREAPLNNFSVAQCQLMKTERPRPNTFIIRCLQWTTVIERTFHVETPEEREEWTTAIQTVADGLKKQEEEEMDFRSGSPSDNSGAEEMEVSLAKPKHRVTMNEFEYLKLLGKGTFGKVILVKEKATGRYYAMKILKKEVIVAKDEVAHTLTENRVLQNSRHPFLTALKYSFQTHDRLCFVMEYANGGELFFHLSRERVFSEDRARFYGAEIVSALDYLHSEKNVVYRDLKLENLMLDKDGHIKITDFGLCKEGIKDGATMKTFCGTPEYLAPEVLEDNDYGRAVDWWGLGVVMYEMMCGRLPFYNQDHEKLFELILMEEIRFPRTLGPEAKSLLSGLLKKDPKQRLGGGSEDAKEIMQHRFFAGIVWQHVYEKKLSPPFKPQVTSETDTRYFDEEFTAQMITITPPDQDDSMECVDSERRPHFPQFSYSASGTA
# assayMethodText: Inactive Akt Alpha Screen Assay
# Assay type: biochemical
# measurementSetup: values not marked with "*"; read-out: Akt1 IC50, (AlphaScreen)
In this scheme, each record receives a class according to its IC50; the ranges are LOW (below 80 nM), MEDIUM (80 nM to below 500 nM), HIGH (500 nM or more)

Band for the recorded IC50 of Cc1cnc2c(c1)nc(-c1cccnc1N)n2-c1ccc(CNC(=O)c2cccnc2F)cc1 [Example 274] ?
HIGH

Band for the recorded IC50 of Cc1ccc(NC(=O)c2ccc(-n3c(-c4cccnc4N)nc4cccnc43)cc2)cc1 [Example 186] ?
HIGH

Band for the recorded IC50 of Cc1ccc2nc(-c3cccnc3N)n(-c3ccc(CC(=O)Nc4cccc(F)c4)cc3)c2n1 [Example 300] ?
MEDIUM

Band for the recorded IC50 of CS(=O)(=O)Nc1cccc(-c2ccc3nc(-c4cccnc4N)n(-c4ccc(C5(N)CCC5)cc4)c3n2)c1 [Example 375] ?
LOW

Band for the recorded IC50 of COc1ccc(S(=O)(=O)NCc2ccc(-n3c(-c4cccnc4N)nc4cc(Br)cnc43)cc2)cc1 [Example 177] ?
HIGH

Band for the recorded IC50 of CC(=O)Nc1cccc(-c2cnc3c(c2)nc(-c2cccnc2N)n3-c2ccc(CNC(=O)c3ccccc3)cc2)c1 [Example 174] ?
LOW

Band for the recorded IC50 of Nc1ncccc1-c1nc2ccc(-c3cc[nH]c3)nc2n1-c1ccc(CNC(=O)c2cccc(F)c2)cc1 [Example 309] ?
LOW

Band for the recorded IC50 of CC(=O)Nc1cccc(-c2ccc3nc(-c4cccnc4N)n(-c4ccc(C5(NC(=O)OC(C)(C)C)CCC5)cc4)c3n2)c1 [Example 340] ?
MEDIUM

Band for the recorded IC50 of CS(=O)(=O)Nc1ccccc1-c1ccc2nc(-c3cccnc3N)n(-c3ccc(CNC(=O)c4cccc(F)c4)cc3)c2n1 [Example 313] ?
MEDIUM

Band for the recorded IC50 of Cc1cnc2c(c1)nc(-c1cccnc1N)n2-c1ccc(CNC(=O)c2ccccc2C)cc1 [Example 223] ?
LOW

Band for the recorded IC50 of Cc1cnc2c(c1)nc(-c1cccnc1N)n2-c1ccc(CNC(=O)CCC2CCCCC2)cc1 [Example 213] ?
MEDIUM

Band for the recorded IC50 of Nc1ncccc1-c1nc2cc(C(F)(F)F)cnc2n1-c1ccc(CNC(=O)c2ccc(Br)cc2)cc1 [Example 187] ?
HIGH

Band for the recorded IC50 of CS(=O)(=O)Nc1ncccc1-c1nc2ccc(-c3ccccc3)nc2n1-c1ccc(C2(NS(C)(=O)=O)CCC2)cc1 [Example 366] ?
MEDIUM

Hello, the source for this data is patent US8501770B2, in case you need it.
